FYI, the data here is from patent US6579881B2.

Catalogue of Ki values
# Assay Target: serotonin 1A receptor (Rattus norvegicus, UniProt P19327)
# Construct: To the receptor fraction of the hippocampus were added a test compound and 0.5 nM of [^3H]; 8-hydroxy-dipropylaminotetralin; from tissue; host or cells: SD rat hippocampus, membrane (receptor) fraction
# Sequence (P19327 whole entry): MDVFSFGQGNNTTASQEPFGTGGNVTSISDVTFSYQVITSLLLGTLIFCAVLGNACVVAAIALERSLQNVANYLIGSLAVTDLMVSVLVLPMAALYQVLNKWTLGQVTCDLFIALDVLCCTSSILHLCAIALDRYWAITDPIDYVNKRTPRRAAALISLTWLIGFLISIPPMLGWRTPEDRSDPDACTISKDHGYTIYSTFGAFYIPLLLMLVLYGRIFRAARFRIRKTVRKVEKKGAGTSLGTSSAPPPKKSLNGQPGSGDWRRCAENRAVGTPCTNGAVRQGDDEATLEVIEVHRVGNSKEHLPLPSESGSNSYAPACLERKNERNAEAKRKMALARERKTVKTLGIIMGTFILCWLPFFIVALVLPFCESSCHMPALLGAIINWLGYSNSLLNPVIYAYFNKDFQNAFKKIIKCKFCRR
# Experiment Summary: Binding test on [3H] 8-hydroxy-dipropylaminotetralin (serotonin 1A receptor)
# Condition Parameters: [3H] 8-OH-DPAT 0.5 nM, receptor fraction of rat hippocampus; read-out: 5HT1a
Where a name gives a salt, the structure may show the parent alone.
Give just the number in nM; leave the unit off.

Sample answers from the record:
{"Compound": "O=C(Cc1ccc2ccn(C3CCN(CCc4ccc(F)cc4)CC3)c2c1)N1CCCC1", "Assay Target": "serotonin 1A receptor (Rattus norvegicus, UniProt P19327)", "Ki / nM": 1.86}
{"Compound": "O=S(=O)(Nc1ccc2c(c1)N(C1CCN(CCc3ccc(F)cc3)CC1)CC2)c1ccc(F)cc1", "Assay Target": "serotonin 1A receptor (Rattus norvegicus, UniProt P19327)", "Ki / nM": 0.2}
{"Compound": "CN1CCC(N2CCc3ccc(NS(=O)(=O)c4ccc(F)cc4)cc32)CC1", "Assay Target": "serotonin 1A receptor (Rattus norvegicus, UniProt P19327)", "Ki / nM": 30.4}
{"Compound": "NC(=O)CNC(=O)Cc1ccc2ccn(C3CCN(CCc4ccc(F)cc4)CC3)c2c1 [Example 306, Oxalate]", "Assay Target": "serotonin 1A receptor (Rattus norvegicus, UniProt P19327)", "Ki / nM": 2.82}
{"Compound": "CCC(O)c1ccc2c(c1)N(C1CCN(CCc3ccc(F)cc3)CC1)CC2 (centres unmarked)", "Assay Target": "serotonin 1A receptor (Rattus norvegicus, UniProt P19327)", "Ki / nM": 1.98}
{"Compound": "CS(=O)(=O)NCc1ccc2ccn(C3CCN(CCc4ccc(F)cc4)CC3)c2c1", "Assay Target": "serotonin 1A receptor (Rattus norvegicus, UniProt P19327)", "Ki / nM": 0.08}
{"Compound": "O=C(NCc1ccc2c(c1)N(C1CCN(CCc3ccc(F)cc3)CC1)CC2)C1CC1", "Assay Target": "serotonin 1A receptor (Rattus norvegicus, UniProt P19327)", "Ki / nM": 5.58}

Query block: Reported Ki for CC(=O)NCc1ccc2ccn(C3CCN(CCCCc4ccc(F)cc4)CC3)c2c1 : what is it?
Result block: 1.52

###

Structures can show the parent of a compound that is named as a salt.
Quantity: melting point

{"Molecule": "CS(=O)(=O)Oc1ccc2ccn(C3CCN(CCc4ccc(F)cc4)CC3)c2c1", "Quantity": "melting point", "Observed Measurement": "213 to 215 °C"}
{"Molecule": "CNS(=O)(=O)Cc1ccc2ccn(C3CCN(CCc4ccc(F)cc4)CC3)c2c1", "Quantity": "melting point", "Observed Measurement": "172 to 175 °C"}
{"Molecule": "CNC(=O)Cc1ccc2ccn(C3CCN(CCc4ccccc4F)CC3)c2c1", "Quantity": "melting point", "Observed Measurement": "136.5 to 137.4 °C"}
{"Molecule": "NC(=O)NCc1ccc2ccn(C3CCN(CCc4ccc(F)cc4)CC3)c2c1", "Quantity": "melting point", "Observed Measurement": "171.9 to 172.8 °C"}
{"Molecule": "CS(=O)(=O)NCc1ccc(CCN2CCC(N3CCc4ccccc43)CC2)cc1 (as salt: oxalate)", "Quantity": "melting point", "Observed Measurement": "199 °C"}
{"Molecule": "CNCc1ccc2ccn(C3CCN(CCc4ccc(F)cc4)CC3)c2c1 (as salt: oxalate)", "Quantity": "melting point", "Observed Measurement": "195 to 196 °C"}
{"Molecule": "CC(C)C(=O)NCc1ccc2ccn(C3CCN(CCc4ccc(F)cc4)CC3)c2c1", "Quantity": "melting point", "Observed Measurement": "97 to 98 °C"}

Now look at this one.
Query block: So what does the record say about melting point for CCCNC(=O)Cc1ccc2ccn(C3CCN(CCc4ccc(F)cc4)CC3)c2c1 ?
Result block: 131.1 to 131.9 °C
